B1: ZNF649 (parent)
chain: MTKAQESLTLEDVAVDFTWEEWQF

- Variants of: B1
- procedure.details: protein stability index of a GFP-peptide fusion (GPS, HEK-293T) (PSI 1-6); higher = more stable;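 note: lentivirally expressed fusions sorted by FACS into six bins by GFP to DsRed ratio, PSI derived from sequencing read proportions per bin multiplied by bin number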
- condition.parameters: c terminus: a fixed tail appended
value.kind: protein stability index

[[record]]
variant_id = "L8F"
value_kind = "protein stability index"
reading = 2.5

[[record]]
variant_id = "W19K"
value_kind = "protein stability index"
reading = 3.58

[[record]]
variant_id = "A4L"
value_kind = "protein stability index"
reading = 3.71

[[record]]
variant_id = "W22K"
value_kind = "protein stability index"
reading = 4.76

[[record]]
variant_id = "T9C"
value_kind = "protein stability index"
reading = 3.52

[[record]]
variant_id = "F24E"
value_kind = "protein stability index"
reading = 5.32

[[record]]
variant_id = "V15A"
value_kind = "protein stability index"
reading = 3.92

[[record]]
variant_id = "F17G"
value_kind = "protein stability index"
reading = 3.81

[[record]]
variant_id = "V13W"
value_kind = "protein stability index"
reading = 2.36

[[record]]
variant_id = "T9P"
value_kind = "protein stability index"
reading = 4.17

[[record]]
variant_id = "T2E"
value_kind = "protein stability index"
reading = 3.94

[[record]]
variant_id = "T2F"
value_kind = "protein stability index"
reading = 2.66

[[record]]
variant_id = "F17A"
value_kind = "protein stability index"
reading = 4.42

[[record]]
variant_id = "D12K"
value_kind = "protein stability index"
reading = 2.7

[[record]]
variant_id = "K3G"
value_kind = "protein stability index"
reading = 3.36

[[record]]
variant_id = "Q5Y"
value_kind = "protein stability index"
reading = 2.32

[[record]]
variant_id = "D12S"
value_kind = "protein stability index"
reading = 2.13

[[record]]
variant_id = "F24D"
value_kind = "protein stability index"
reading = 4.57

[[record]]
variant_id = "S7V"
value_kind = "protein stability index"
reading = 2.5

[[record]]
variant_id = "V15F"
value_kind = "protein stability index"
reading = 2.48

[[record]]
variant_id = "W19V"
value_kind = "protein stability index"
reading = 3.68

[[record]]
variant_id = "D16K"
value_kind = "protein stability index"
reading = 2.5

[[record]]
variant_id = "T18A"
value_kind = "protein stability index"
reading = 3.87

[[record]]
variant_id = "W22V"
value_kind = "protein stability index"
reading = 3.96

[[record]]
variant_id = "F17W"
value_kind = "protein stability index"
reading = 3.31

[[record]]
variant_id = "W22E"
value_kind = "protein stability index"
reading = 4.52

[[record]]
variant_id = "M1A"
value_kind = "protein stability index"
reading = 3.33

[[record]]
variant_id = "T9F"
value_kind = "protein stability index"
reading = 3.35

[[record]]
variant_id = "M1Y"
value_kind = "protein stability index"
reading = 2.96

[[record]]
variant_id = "Q5I"
value_kind = "protein stability index"
reading = 3.02

[[record]]
variant_id = "Q23P"
value_kind = "protein stability index"
reading = 3.22

[[record]]
variant_id = "A14H"
value_kind = "protein stability index"
reading = 3.12

[[record]]
variant_id = "M1I"
value_kind = "protein stability index"
reading = 2.83

[[record]]
variant_id = "K3Q"
value_kind = "protein stability index"
reading = 2.98

[[record]]
variant_id = "K3P"
value_kind = "protein stability index"
reading = 3.33

[[record]]
variant_id = "L8Y"
value_kind = "protein stability index"
reading = 2.7

[[record]]
variant_id = "Q23S"
value_kind = "protein stability index"
reading = 3.06

[[record]]
variant_id = "K3Y"
value_kind = "protein stability index"
reading = 2.64

[[record]]
variant_id = "Q5V"
value_kind = "protein stability index"
reading = 3.37

[[record]]
variant_id = "E6F"
value_kind = "protein stability index"
reading = 1.89

[[record]]
variant_id = "A4K"
value_kind = "protein stability index"
reading = 3.15

[[record]]
variant_id = "E11K"
value_kind = "protein stability index"
reading = 2.62

[[record]]
variant_id = "E11V"
value_kind = "protein stability index"
reading = 1.43

[[record]]
variant_id = "T2P"
value_kind = "protein stability index"
reading = 3.66

[[record]]
variant_id = "L8N"
value_kind = "protein stability index"
reading = 4.42

[[record]]
variant_id = "T18E"
value_kind = "protein stability index"
reading = 3.32

[[record]]
variant_id = "T2A"
value_kind = "protein stability index"
reading = 3.09

[[record]]
variant_id = "T9S"
value_kind = "protein stability index"
reading = 3.43

[[record]]
variant_id = "W22L"
value_kind = "protein stability index"
reading = 3.62

[[record]]
variant_id = "F17Q"
value_kind = "protein stability index"
reading = 4.51

[[record]]
variant_id = "D12A"
value_kind = "protein stability index"
reading = 1.72

[[record]]
variant_id = "Q23E"
value_kind = "protein stability index"
reading = 3.46

[[record]]
variant_id = "E20C"
value_kind = "protein stability index"
reading = 2.48

[[record]]
variant_id = "V15W"
value_kind = "protein stability index"
reading = 2.59

[[record]]
variant_id = "A14F"
value_kind = "protein stability index"
reading = 2.08

[[record]]
variant_id = "K3F"
value_kind = "protein stability index"
reading = 2.17

[[record]]
variant_id = "T2R"
value_kind = "protein stability index"
reading = 2.72

[[record]]
variant_id = "A4E"
value_kind = "protein stability index"
reading = 3.66

[[record]]
variant_id = "W19L"
value_kind = "protein stability index"
reading = 3

[[record]]
variant_id = "T9W"
value_kind = "protein stability index"
reading = 2.54

[[record]]
variant_id = "E11D"
value_kind = "protein stability index"
reading = 3.57

[[record]]
variant_id = "L10M"
value_kind = "protein stability index"
reading = 3.44

[[record]]
variant_id = "E20R"
value_kind = "protein stability index"
reading = 2.06

[[record]]
variant_id = "Q5S"
value_kind = "protein stability index"
reading = 3.96

[[record]]
variant_id = "A4Q"
value_kind = "protein stability index"
reading = 3.18

[[record]]
variant_id = "D16R"
value_kind = "protein stability index"
reading = 2.22

[[record]]
variant_id = "F24G"
value_kind = "protein stability index"
reading = 4.45

[[record]]
variant_id = "W22H"
value_kind = "protein stability index"
reading = 4.13

[[record]]
variant_id = "A14L"
value_kind = "protein stability index"
reading = 1.74

[[record]]
variant_id = "T9R"
value_kind = "protein stability index"
reading = 3.59

[[record]]
variant_id = "W19D"
value_kind = "protein stability index"
reading = 4.65

[[record]]
variant_id = "F24K"
value_kind = "protein stability index"
reading = 4.87

[[record]]
variant_id = "D16P"
value_kind = "protein stability index"
reading = 4.02

[[record]]
variant_id = "V13P"
value_kind = "protein stability index"
reading = 4.15

[[record]]
variant_id = "W22N"
value_kind = "protein stability index"
reading = 4.27

[[record]]
variant_id = "E6Y"
value_kind = "protein stability index"
reading = 1.53

[[record]]
variant_id = "L8D"
value_kind = "protein stability index"
reading = 4.41

[[record]]
variant_id = "W19Y"
value_kind = "protein stability index"
reading = 3.61

[[record]]
variant_id = "W22S"
value_kind = "protein stability index"
reading = 4.78

[[record]]
variant_id = "Q23G"
value_kind = "protein stability index"
reading = 2.87

[[record]]
variant_id = "T9I"
value_kind = "protein stability index"
reading = 2.71

[[record]]
variant_id = "T18S"
value_kind = "protein stability index"
reading = 3.15

[[record]]
variant_id = "D16V"
value_kind = "protein stability index"
reading = 2.29

[[record]]
variant_id = "K3R"
value_kind = "protein stability index"
reading = 3.12

[[record]]
variant_id = "F24L"
value_kind = "protein stability index"
reading = 3.83

[[record]]
variant_id = "E21V"
value_kind = "protein stability index"
reading = 2.81

[[record]]
variant_id = "E11C"
value_kind = "protein stability index"
reading = 2.12

[[record]]
variant_id = "E11S"
value_kind = "protein stability index"
reading = 2.83

[[record]]
variant_id = "S7P"
value_kind = "protein stability index"
reading = 3.14

[[record]]
variant_id = "F24Y"
value_kind = "protein stability index"
reading = 3.4

[[record]]
variant_id = "A4W"
value_kind = "protein stability index"
reading = 2.15

